tested on: SNB-19 CNS; experiment: NCI tumour cell line growth inhibition, 48 h; in the data active means GI50 below about 0.43 µM; inactive means the rest
Allowed answers: 1 for active, 0 for inactive

Examples with answers:
>  <COMPOUND>
O=c1c2ccccc2c(/C=N\NC2=NCCN2)c2oc3ccccc3n12

>  <TARGET_ENTITY>
SNB-19 CNS

>  <QUALITATIVE_LABEL>
0

$$$$
>  <COMPOUND>
COc1cc(N2C(=O)[C@H](c3ccccc3)C2c2ccc(SC)cc2)cc(OC)c1OC (stereo partly drawn)

>  <TARGET_ENTITY>
SNB-19 CNS

>  <QUALITATIVE_LABEL>
1

$$$$
>  <COMPOUND>
O=C(COc1cccc(/C=C2\CSc3ccc(Cl)cc3C2=O)c1)c1ccc(Cl)cc1

>  <TARGET_ENTITY>
SNB-19 CNS

>  <QUALITATIVE_LABEL>
0

$$$$
>  <COMPOUND>
COc1ccc(/C=C2\COc3ccc(O)c(O)c3C2=O)c(OC)c1OC

>  <TARGET_ENTITY>
SNB-19 CNS

>  <QUALITATIVE_LABEL>
0

$$$$
>  <COMPOUND>
COc1cc(/C=C2\CCC/C(=C\c3ccc(O)c(OC)c3)C2=O)ccc1O

>  <TARGET_ENTITY>
SNB-19 CNS

>  <QUALITATIVE_LABEL>
0

$$$$

Check the results log: what was the call for `O=C1c2cccnc2C(=O)c2c1c(C(=O)OCCN1CCCCC1)c1ccccn21` ?
1

Check the results log: what was the call for `Oc1c(Cl)cc(Cl)cc1/C=N/Nc1nnc(N/N=C/c2cc(Cl)cc(Cl)c2O)c2ccccc12` ?
0

Check the results log: what was the call for `CN(C)CCCSc1ccccc1NC1=C(Cl)C(=O)C(Nc2ccccc2SCCCN(C)C)=C(Cl)C1=O` ?
0
